# Free Hemoglobin, BLOOD, 32 μg/mL values compiled below
tested on: erythrocyte membranes; experiment: Hemolysis in whole blood (Kahn method); assay type: cell-based, human
Peptide text beside a SMILES is read from it. * marks the point of attachment. Myristoyl = CCCCCCCCCCCCCC(=O)*; Lauroyl = CCCCCCCCCCCC(=O)*; Decanoyl = CCCCCCCCCC(=O)*

{"columns": ["COMPOUND", "TARGET SYSTEM", "Free Hemoglobin, BLOOD, 32 μg/mL / mg/dL"],
 "data": [
  ["CCCCCCCCCCCCCC(=O)N1CCC[C@H]1C(=O)N[C@@H](Cc1ccccc1)C(=O)N[C@@H](Cc1c[nH]c2ccccc12)C(=O)N[C@@H](CCCNC(=N)N)C(=O)N[C@H](C(=O)N[C@@H](CCCNC(=N)N)C(=O)N[C@H](C(=O)N[C@@H](CCCNC(=N)N)C(=O)N[C@@H](CCCNC(=N)N)C(N)=O)[C@@H](C)CC)[C@@H](C)CC [LF11-322-C14] (Myristoyl-PFWRIRIRR-NH2)", "erythrocyte membranes", 5.4],
  ["CCCCCCCCCC(=O)N[C@@H](Cc1ccccc1)C(=O)N[C@@H](Cc1c[nH]c2ccccc12)C(=O)N[C@@H](CCCNC(=N)N)C(=O)N[C@@H](CCCNC(=N)N)C(=O)N[C@@H](Cc1ccccc1)C(=O)N[C@@H](Cc1c[nH]c2ccccc12)C(=O)N[C@@H](CCCNC(=N)N)C(=O)N[C@@H](CCCNC(=N)N)C(N)=O [LF11-227-C10] (Decanoyl-FWRRFWRR-NH2)", "erythrocyte membranes", 4.2],
  ["CCCCCCCCCCCC(=O)N1CCC[C@H]1C(=O)N[C@@H](Cc1ccccc1)C(=O)N[C@@H](Cc1c[nH]c2ccccc12)C(=O)N[C@@H](CCCNC(=N)N)C(=O)N[C@H](C(=O)N[C@@H](CCCNC(=N)N)C(=O)N[C@H](C(=O)N[C@@H](CCCNC(=N)N)C(=O)N[C@@H](CCCNC(=N)N)C(N)=O)[C@@H](C)CC)[C@@H](C)CC [LF11-322-C12] (Lauroyl-PFWRIRIRR-NH2)", "erythrocyte membranes", 8.6]
]}
